molecular target: c-HaRas protein; assay: Ras GTPase stimulating activity: hydrolysis of [gamma-32P] GTP bound to c-HaRas protein, by GST fusion NF1 mutants; format: biochemical, murine; conditions: 25° C., 20 minutes
Test readout: EC50, concentration required for 50% hydrolysis of GTP bound Ras (µg/mL)
# unit: µg/mL | format: bare number

Molecule | Value units | Test result
NF 326: NF1 fragment, residues 1206-1531 (protein, UniProt P21359 1206-1531, looked up, fragment) ERLVELVTMMGDQGELPIAMALANVVPCSQWDELARVLVTLFDSRHLLYQLLWNMFSKEVELADSMQTLFRGNSLASKIMTFCFKVYGATYLQKLLDPLLRIVITSSDWQHVSFEVDPTRLEPSESLEENQRNLLQMTEKFFHAIISSSSEFPPQLRSVCHCLYQATCHSLLNKATVKEKKENKKSVVSQRFPQNSIGAVGSAMFLRFINPAIVSPYEAGILDKKPPPRIERGLKLMSKILQSIANHVLFTKEEHMRPFNDFVKSNFDAARRFFLDIASDCPTSDAVNHSLSFISDGNVLALHRLLWNNQEKIGQYLSSNRDHKAV | µg/mL | 1.5
NF 327: NF1 fragment, residues 1205-1531 (protein, UniProt P21359 1205-1531, looked up, fragment) FERLVELVTMMGDQGELPIAMALANVVPCSQWDELARVLVTLFDSRHLLYQLLWNMFSKEVELADSMQTLFRGNSLASKIMTFCFKVYGATYLQKLLDPLLRIVITSSDWQHVSFEVDPTRLEPSESLEENQRNLLQMTEKFFHAIISSSSEFPPQLRSVCHCLYQATCHSLLNKATVKEKKENKKSVVSQRFPQNSIGAVGSAMFLRFINPAIVSPYEAGILDKKPPPRIERGLKLMSKILQSIANHVLFTKEEHMRPFNDFVKSNFDAARRFFLDIASDCPTSDAVNHSLSFISDGNVLALHRLLWNNQEKIGQYLSSNRDHKAV | µg/mL | 0.40
NF 292: NF1 fragment, residues 1205-1496 (protein, UniProt P21359 1205-1496, looked up, fragment) FERLVELVTMMGDQGELPIAMALANVVPCSQWDELARVLVTLFDSRHLLYQLLWNMFSKEVELADSMQTLFRGNSLASKIMTFCFKVYGATYLQKLLDPLLRIVITSSDWQHVSFEVDPTRLEPSESLEENQRNLLQMTEKFFHAIISSSSEFPPQLRSVCHCLYQATCHSLLNKATVKEKKENKKSVVSQRFPQNSIGAVGSAMFLRFINPAIVSPYEAGILDKKPPPRIERGLKLMSKILQSIANHVLFTKEEHMRPFNDFVKSNFDAARRFFLDIASDCPTSDAVNHSL | µg/mL | 7.5
NF78: NF1 fragment, amino acid residues 1441 to 1518 (protein) RPFNDFVKSNFDAARRFFLDIASDCPTSDAVNHSLSFISDGNVLALHRLLWNNQEKIGQYLSSNRDHKAVGRRPFDKM | µg/mL | 25
NF91: NF1 fragment, amino acid residues 1441 to 1531; GST fusion in Table II, expressed from pMV7 plasmid in cells (protein, UniProt P21359 1441-1531, looked up, fragment, GST fusion) LMSKILQSIANHVLFTKEEHMRPFNDFVKSNFDAARRFFLDIASDCPTSDAVNHSLSFISDGNVLALHRLLWNNQEKIGQYLSSNRDHKAV | µg/mL | 10

Below: the item to evaluate.
What value of EC50, concentration required for 50% hydrolysis of GTP bound Ras has been recorded for this entry: NF 342: NF1 fragment, residues 1190-1531 (protein, UniProt P21359 1190-1531, looked up, fragment) GTEFDTLAETVLADRFERLVELVTMMGDQGELPIAMALANVVPCSQWDELARVLVTLFDSRHLLYQLLWNMFSKEVELADSMQTLFRGNSLASKIMTFCFKVYGATYLQKLLDPLLRIVITSSDWQHVSFEVDPTRLEPSESLEENQRNLLQMTEKFFHAIISSSSEFPPQLRSVCHCLYQATCHSLLNKATVKEKKENKKSVVSQRFPQNSIGAVGSAMFLRFINPAIVSPYEAGILDKKPPPRIERGLKLMSKILQSIANHVLFTKEEHMRPFNDFVKSNFDAARRFFLDIASDCPTSDAVNHSLSFISDGNVLALHRLLWNNQEKIGQYLSSNRDHKAV 0.52
